// reported inhibition at 1 µM per item
# Subject Of Test: Human PI3K gamma (Homo sapiens, UniProt P48736)
# Construct: His (N); host or cells: SF9 insect cells (baculovirus)
# Sequence (P48736 whole entry): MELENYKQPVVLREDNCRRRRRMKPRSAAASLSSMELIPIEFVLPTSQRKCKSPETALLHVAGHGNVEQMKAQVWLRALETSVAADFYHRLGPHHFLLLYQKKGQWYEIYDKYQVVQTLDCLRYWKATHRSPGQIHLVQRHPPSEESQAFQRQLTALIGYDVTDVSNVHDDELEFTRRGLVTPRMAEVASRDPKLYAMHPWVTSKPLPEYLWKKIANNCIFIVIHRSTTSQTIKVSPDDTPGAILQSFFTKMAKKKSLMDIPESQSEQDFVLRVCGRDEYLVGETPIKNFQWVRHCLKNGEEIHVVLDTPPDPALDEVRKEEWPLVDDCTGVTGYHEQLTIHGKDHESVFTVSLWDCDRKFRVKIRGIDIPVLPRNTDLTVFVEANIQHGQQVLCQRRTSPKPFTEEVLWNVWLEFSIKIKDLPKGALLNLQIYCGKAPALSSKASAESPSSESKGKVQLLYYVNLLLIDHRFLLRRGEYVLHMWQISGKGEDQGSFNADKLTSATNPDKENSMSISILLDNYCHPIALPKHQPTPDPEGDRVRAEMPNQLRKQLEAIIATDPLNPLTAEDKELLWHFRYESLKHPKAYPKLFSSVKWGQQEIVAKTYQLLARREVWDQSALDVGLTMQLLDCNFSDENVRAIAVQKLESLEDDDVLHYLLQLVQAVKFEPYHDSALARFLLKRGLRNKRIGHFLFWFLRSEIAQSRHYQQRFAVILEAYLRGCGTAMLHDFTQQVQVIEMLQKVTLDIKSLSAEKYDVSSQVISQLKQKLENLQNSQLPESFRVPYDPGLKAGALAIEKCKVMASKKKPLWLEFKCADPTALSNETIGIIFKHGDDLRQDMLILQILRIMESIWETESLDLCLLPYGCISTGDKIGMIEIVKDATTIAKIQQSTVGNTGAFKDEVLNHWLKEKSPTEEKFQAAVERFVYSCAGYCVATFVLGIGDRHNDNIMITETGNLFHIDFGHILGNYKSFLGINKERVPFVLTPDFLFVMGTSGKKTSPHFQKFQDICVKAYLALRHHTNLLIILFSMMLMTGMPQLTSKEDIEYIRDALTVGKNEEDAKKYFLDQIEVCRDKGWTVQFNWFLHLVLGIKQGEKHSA
# Test Details: Human PI3K gamma enzyme assay (HTRF)
# Assay type: biochemical
# Study Conditions: concentration not given; b1389 states 1.0 μM for PI3K δ and γ; read-out: p110 gamma Percent Inhibition
Kindly answer with a numeric value in %, unit omitted.

[
  {
    "Compound": "Cc1cc(-c2cc(C(c3ccc(Cl)cc3)N(C)C)c(-c3nnc[nH]3)s2)ccn1 (stereo not shown)",
    "Scale Unit": "%",
    "inhibition at 1 µM": 7
  },
  {
    "Compound": "N#Cc1c(N2CCOCC2)sc(C(N)=O)c1Cc1ccc2ccccc2c1",
    "Scale Unit": "%",
    "inhibition at 1 µM": 22
  },
  {
    "Compound": "N#Cc1c(-c2ccnnc2)sc(-c2nnc[nH]2)c1C(c1ccc2ccccc2c1)N1CCNCC1 (stereo not shown)",
    "Scale Unit": "%",
    "inhibition at 1 µM": 6
  }
]

Shifting focus to the compound that follows.
Tell me the measured inhibition at 1 µM of OC(c1ccc(Cl)cc1Cl)c1cc(-c2ccncc2)sc1-c1nnc[nH]1 (stereo not shown) , please.
31

###

# Subject Of Test: Human PI3K beta (Homo sapiens, UniProt P42338)
# Construct: His (N); host or cells: SF9 insect cells (baculovirus)
# Sequence (P42338 whole entry): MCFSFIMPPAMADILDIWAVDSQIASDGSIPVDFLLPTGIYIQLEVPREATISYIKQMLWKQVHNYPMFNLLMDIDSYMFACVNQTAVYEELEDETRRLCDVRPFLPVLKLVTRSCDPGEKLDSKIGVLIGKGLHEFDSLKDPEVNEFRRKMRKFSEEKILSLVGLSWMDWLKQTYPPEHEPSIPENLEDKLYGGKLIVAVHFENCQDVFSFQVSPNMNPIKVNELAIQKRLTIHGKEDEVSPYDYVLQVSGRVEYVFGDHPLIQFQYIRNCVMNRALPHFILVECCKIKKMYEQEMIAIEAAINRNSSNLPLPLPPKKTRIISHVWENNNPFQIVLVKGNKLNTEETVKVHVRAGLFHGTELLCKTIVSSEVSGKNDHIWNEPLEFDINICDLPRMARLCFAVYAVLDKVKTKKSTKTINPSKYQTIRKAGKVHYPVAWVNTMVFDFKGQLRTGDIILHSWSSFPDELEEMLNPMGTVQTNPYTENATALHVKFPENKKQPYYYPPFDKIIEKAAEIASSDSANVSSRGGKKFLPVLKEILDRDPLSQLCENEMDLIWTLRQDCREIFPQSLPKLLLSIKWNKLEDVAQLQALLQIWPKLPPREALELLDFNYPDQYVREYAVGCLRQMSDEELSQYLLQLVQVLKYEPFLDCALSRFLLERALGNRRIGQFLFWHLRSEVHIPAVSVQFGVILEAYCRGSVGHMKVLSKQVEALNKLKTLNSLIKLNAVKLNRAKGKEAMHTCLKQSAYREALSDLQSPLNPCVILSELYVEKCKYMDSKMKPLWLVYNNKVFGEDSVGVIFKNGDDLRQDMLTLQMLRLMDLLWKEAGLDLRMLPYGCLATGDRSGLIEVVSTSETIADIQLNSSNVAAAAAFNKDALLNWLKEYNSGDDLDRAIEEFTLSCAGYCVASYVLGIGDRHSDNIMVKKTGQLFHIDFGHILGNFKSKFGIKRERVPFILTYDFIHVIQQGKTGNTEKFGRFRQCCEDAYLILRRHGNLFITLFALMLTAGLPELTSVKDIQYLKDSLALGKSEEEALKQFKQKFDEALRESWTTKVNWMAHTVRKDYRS
# Sequence (P27986 whole entry partner): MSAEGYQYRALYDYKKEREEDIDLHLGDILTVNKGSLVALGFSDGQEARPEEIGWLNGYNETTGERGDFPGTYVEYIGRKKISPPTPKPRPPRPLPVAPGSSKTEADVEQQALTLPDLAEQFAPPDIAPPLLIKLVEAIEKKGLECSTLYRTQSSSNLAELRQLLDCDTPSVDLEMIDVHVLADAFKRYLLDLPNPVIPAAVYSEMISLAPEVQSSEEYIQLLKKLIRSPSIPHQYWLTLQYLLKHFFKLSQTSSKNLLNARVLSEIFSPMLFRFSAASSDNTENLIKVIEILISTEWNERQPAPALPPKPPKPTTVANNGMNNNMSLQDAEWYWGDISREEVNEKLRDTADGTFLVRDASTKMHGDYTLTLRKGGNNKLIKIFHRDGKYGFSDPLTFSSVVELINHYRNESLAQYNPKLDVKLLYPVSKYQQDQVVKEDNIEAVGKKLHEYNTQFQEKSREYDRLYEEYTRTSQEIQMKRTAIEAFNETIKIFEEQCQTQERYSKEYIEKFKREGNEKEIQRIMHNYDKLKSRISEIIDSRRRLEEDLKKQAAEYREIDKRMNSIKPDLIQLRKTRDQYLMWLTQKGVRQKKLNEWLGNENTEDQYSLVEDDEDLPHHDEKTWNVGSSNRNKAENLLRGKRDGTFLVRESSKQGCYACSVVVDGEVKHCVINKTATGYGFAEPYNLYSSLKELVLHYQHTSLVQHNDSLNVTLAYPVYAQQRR
# Test Details: Human PI3K beta enzyme assay (HTRF)
# Format: biochemical
# Study Conditions: concentration not given; b1387 states 1.1 μM for PI3K α and β; read-out: p110 beta Percent Inhibition
// reported inhibition at 1.1 µM per item
Kindly answer with a numeric value in %, unit omitted.

Consider the following illustrative entries.
[
  {
    "Molecule": "OC(c1ccc2ncccc2c1)c1cc(-c2ccncc2)sc1-c1nnc[nH]1 (centres unmarked) [Compound 257]",
    "Scale Unit": "%",
    "inhibition at 1.1 µM": 97
  },
  {
    "Molecule": "CC(=O)Nc1cc(-c2cc([C@H](c3ccc(Cl)cc3)N3CCC3)c(-c3nnc[nH]3)s2)ccn1 (single isomer, unassigned) [Compound 241]",
    "Scale Unit": "%",
    "inhibition at 1.1 µM": 107
  },
  {
    "Molecule": "COc1ccc2ccc(Cc3nc(N4CCOCC4)sc3C(=O)O)cc2c1 [Compound 335]",
    "Scale Unit": "%",
    "inhibition at 1.1 µM": 111
  },
  {
    "Molecule": "N#Cc1c(N2CCOCC2)sc(C(=O)O)c1C(N)c1ccc2ccccc2c1 (centres unmarked) [Compound 357]",
    "Scale Unit": "%",
    "inhibition at 1.1 µM": 110
  },
  {
    "Molecule": "O=C(O)c1sc(N2CCOCC2)nc1Cc1cc(Cl)c(Cl)cc1F [Compound 290]",
    "Scale Unit": "%",
    "inhibition at 1.1 µM": 104
  }
]

Tell me the measured inhibition at 1.1 µM of N#Cc1c(N2CCOCC2)sc(C(=O)O)c1Cc1ccc2cc(F)ccc2c1 [Compound 315] , please.
110

Another molecule to look at: CS(=O)(=O)NC(=O)c1sc(N2CCOCC2)c(C#N)c1Cc1ccc(Cl)c(Cl)c1 [Compound 352]
85

Another molecule to look at: CC(=O)Nc1cc(-c2cc(C(c3ccc(Cl)cc3)N3CCCC3)c(-c3nnc[nH]3)s2)ccn1 (centres unmarked) [Compound 230]
93

###

// reported inhibition at 1.1 µM per item
# Subject Of Test: Human PI3K beta (Homo sapiens)
# Construct: His (N); host or cells: SF9 insect cells (baculovirus)
# Test Details: Human PI3K beta enzyme assay (HTRF)
# Assay type: biochemical
# Study Conditions: concentration not given; b1387 states 1.1 μM for PI3K α and β; read-out: p110 beta Percent Inhibition
Kindly answer with a numeric value in %, unit omitted.

[
  {
    "Compound": "CC(=O)Nc1cc(-c2sc(-c3nnc[nH]3)c(C(O)c3ccc(Cl)cc3)c2C#N)ccn1 (centres unmarked)",
    "inhibition at 1.1 µM, %": 77
  },
  {
    "Compound": "CC(=O)Nc1cc(-c2cc([C@@H](c3ccc(Cl)cc3)N(C)C)c(-c3nnc[nH]3)s2)ccn1 (single isomer, unassigned)",
    "inhibition at 1.1 µM, %": 101
  },
  {
    "Compound": "CC(=O)Nc1cc(-c2cc(C(c3ccc(Cl)cc3)N3CCNCC3)c(-c3nnc[nH]3)s2)ccn1 (centres unmarked)",
    "inhibition at 1.1 µM, %": 108
  },
  {
    "Compound": "CC(=O)Nc1cc(-c2cc(C(NCCN(C)C)c3ccc(Cl)cc3)c(-c3nnc[nH]3)s2)ccn1 (centres unmarked)",
    "inhibition at 1.1 µM, %": 112
  },
  {
    "Compound": "OC(c1cc(-c2ccncc2)sc1-c1nnc[nH]1)c1cccc2ccccc12 (centres unmarked)",
    "inhibition at 1.1 µM, %": 94
  }
]

Tell me the measured inhibition at 1.1 µM of CC(=O)Nc1cc(-c2cc(C(c3ccc(Cl)cc3)N3CCC[C@H]3CO)c(-c3nnc[nH]3)s2)ccn1 (single isomer, unassigned) , please.
100

Another compound to look at: COc1ccc(C(O)c2cc(-c3ccncc3)sc2-c2nnc[nH]2)cc1OC (centres unmarked)
81

Another compound to look at: OC(c1cnc2ccccc2c1)c1cc(-c2ccncc2)sc1-c1nnc[nH]1 (centres unmarked)
103

###

# Subject Of Test: Human PI3K gamma (Homo sapiens)
# Construct: His (N); host or cells: SF9 insect cells (baculovirus)
# Test Details: Human PI3K gamma enzyme assay (HTRF)
# Assay type: biochemical
# Study Conditions: concentration not given; b1389 states 1.0 μM for PI3K δ and γ; read-out: p110 gamma Percent Inhibition
Tick 1 (yes) if inhibition at 1 µM is 10% or greater. Tick 0 (no) if inhibition at 1 µM is less than 10%.

[
  {
    "Compound": "O=C(O)c1sc(N2CCOCC2)nc1Cc1cc2ccccc2s1",
    "Label Class": "1 (yes)"
  },
  {
    "Compound": "O=C(O)c1sc(N2CCOCC2)nc1Cc1ccc2cnccc2c1",
    "Label Class": "0 (no)"
  },
  {
    "Compound": "c1ccc2cc(Cc3cc(N4CCOCC4)sc3-c3nnn[nH]3)ccc2c1",
    "Label Class": "1 (yes)"
  }
]

Moving on to the next compound.
Answer whether inhibition at 1 µM of CC(=O)Nc1cc(-c2cc(C(NC(C)C)c3ccc(Cl)cc3)c(-c3nnc[nH]3)s2)ccn1 (stereo not drawn) is greater than or equal to 10%.
1 (yes)

###

# Subject Of Test: Human PI3K beta (Homo sapiens)
# Construct: His (N); host or cells: SF9 insect cells (baculovirus)
# Test Details: Human PI3K beta enzyme assay (HTRF)
# Assay type: biochemical
# Study Conditions: concentration not given; b1387 states 1.1 μM for PI3K α and β; read-out: p110 beta Percent Inhibition
Measured Parameter: inhibition at 1.1 µM (%)
Kindly answer with a numeric value in %, unit omitted.

Consider the following illustrative entries.
[
  {
    "Compound": "N#Cc1c(N2CCOCC2)sc(C(N)=O)c1Cc1ccc2ccccc2c1",
    "inhibition at 1.1 µM (%)": 109
  },
  {
    "Compound": "OC(c1ccc(-c2ccncc2)cc1)c1cc(-c2ccncc2)sc1-c1nnc[nH]1 (stereo not drawn)",
    "inhibition at 1.1 µM (%)": 83
  },
  {
    "Compound": "OC(c1ccc(-c2cccnc2)cc1)c1cc(-c2ccncc2)sc1-c1nnc[nH]1 (stereo not drawn)",
    "inhibition at 1.1 µM (%)": 84
  },
  {
    "Compound": "OC(c1ccc(Cl)c(F)c1)c1cc(-c2ccncc2)sc1-c1nnc[nH]1 (stereo not drawn)",
    "inhibition at 1.1 µM (%)": 105
  },
  {
    "Compound": "OC(c1ccc2c(c1)OCCO2)c1cc(-c2ccncc2)sc1-c1nnc[nH]1 (stereo not drawn)",
    "inhibition at 1.1 µM (%)": 85
  }
]

Tell me the measured inhibition at 1.1 µM of CC(=O)Nc1cc(-c2cc(C(N=[N+]=[N-])c3ccc(Cl)cc3)c(-c3nnc[nH]3)s2)ccn1 (stereo not drawn) , please.
111

Another compound to look at: N#Cc1c(N2CCOCC2)sc(C(=O)O)c1C(CCO)c1ccc(Cl)c(Cl)c1 (stereo not drawn)
102

Another compound to look at: CC(=O)Nc1cc(-c2cc(C(O)(CCCN(C)C)c3ccc(Cl)cc3)c(-c3nnc[nH]3)s2)ccn1 (stereo not drawn)
98

Another compound to look at: OC(c1ccc(-c2ncccn2)cc1)c1cc(-c2ccncc2)sc1-c1nnc[nH]1 (stereo not drawn)
85

Another compound to look at: O=C(Nc1cc(-c2cc(C(c3ccc(Cl)cc3)N3CCNCC3)c(-c3nnc[nH]3)s2)ccn1)C1CC1 (stereo not drawn)
103

Another compound to look at: CC(=O)Nc1cc(-c2cc(C(c3ccc(Cl)cc3)N3CC(O)C3)c(-c3nnc[nH]3)s2)ccn1 (stereo not drawn)
105

Another compound to look at: `Clc1cccc(Cc2nc(-c3ccncc3)sc2-c2nnc[nH]2)c1`
54

Another compound to look at: CC(=O)Nc1cc(-c2cc(C(c3ccc(Cl)cc3)N3CCC3)c(-c3nnc[nH]3)s2)ccn1 (stereo not drawn)
105

Another compound to look at: CC(C)(C)[S+]([O-])NC(c1ccc2ccccc2c1)c1c(C(=O)O)sc(N2CCOCC2)c1C#N (stereo not drawn)
61

Another compound to look at: CC(=O)Nc1cc(-c2cc(C(c3ccc(Cl)cc3)N3CCN(CC(F)(F)F)CC3)c(-c3nnc[nH]3)s2)ccn1 (stereo not drawn)
68

Another compound to look at: `N#Cc1c(N2CCOCC2)sc(-c2nnn[nH]2)c1Cc1ccc2ccccc2c1`
106

Another compound to look at: OC(c1cc(-c2ccncc2)sc1-c1nnc[nH]1)c1ccnc2ccccc12 (stereo not drawn)
85

Another compound to look at: CC(=O)Nc1cc(-c2cc(C(c3ccc(Cl)cc3)N3CC4(COC4)C3)c(-c3nnc[nH]3)s2)ccn1 (stereo not drawn)
105

Data provenance: patent US8796268B2
